Assay: physchem
Conditions: 25 °C, pH 4.5, aqueous buffer, thermodynamic from solid
Excerpt: Perform scale-up experiments on the above six salts to determine solubilities of various salts in different pH buffers and deionized water, and compare with the free base.

| Compound | solubility |
| --- | --- |
| CNc1nc(C)c(-c2nc(Nc3cccc(S(N)(=O)=O)c3)ncc2F)s1.O=C(O)C(O)C(O)C(=O)O [Tartrate] | 7.5 µg/mL |

* * *

test: physchem; settings: 25 °C, pH 6.8, aqueous buffer, thermodynamic from solid
Endpoint name: solubility

| Compound | Measured result |
| --- | --- |
| CNc1nc(C)c(-c2nc(Nc3cccc(S(N)(=O)=O)c3)ncc2F)s1.O=C(O)C(O)C(O)C(=O)O [Tartrate] | 3.7 µg/mL |
